- Assay Remarks: total protein half-life in vivo (active degradation + dilution); higher = more stable protein
- Condition Label: wild type E. coli NCM3722; growth: P-lim chemostat; doubling time 12 h
Recorded measurements of total protein half-life in vivo, one per entry
Please report the result as a number followed by the unit.

[
  {
    "Input Sequence": "MTEPLKPRIDFDGPLEVDQNPKFRAQQTFDENQAQNFAPATLDEAQEEEGQVEAVMDAALRPKRSLWRKMVMGGLALFGASVVGQGVQWTMNAWQTQDWVALGGCAAGALIIGAGVGSVVTEWRRLWRLRQRAHERDEARDLLHSHGTGKGRAFCEKLAQQAGIDQSHPALQRWYASIHETQNDREVVSLYAHLVQPVLDAQARREISRSAAESTLMIAVSPLALVDMAFIAWRNLRLINRIATLYGIELGYYSRLRLFKLVLLNIAFAGASELVREVGMDWMSQDLAARLSTRAAQGIGAGLLTARLGIKAMELCRPLPWIDDDKPRLGDFRRQLIGQVKETLQKGKTPSEK [P0A8R7]",
    "Result": "8.52 h"
  },
  {
    "Input Sequence": "MMELMVVHPHIFWLSLGGLLLAAEMLGGNGYLLWSGVAAVITGLVVWLVPLGWEWQGVMFAILTLLAAWLWWKWLSRRVREQKHSDSHLNQRGQQLIGRRFVLESPLVNGRGHMRVGDSSWPVSASEDLGAGTHVEVIAIEGITLHIRAVSS [P0AAS3]",
    "Result": "10.6 h"
  },
  {
    "Input Sequence": "MNTLLLLAALSSQITFNTTQQGDVYTIIPEVTLTQSCLCRVQILSLREGSSGQSQTKQEKTLSLPANQPIALTKLSLNISPDDRVKIVVTVSDGQSLHLSQQWPPSSEKS",
    "Result": "7.71 h"
  }
]

Okay, now this sequence:
Look up total protein half-life in vivo: `MFSIQQPLLVFSDLDGTLLDSHSYDWQPAAPWLTRLREANVPVILCSSKTSAEMLYLQKTLGLQGLPLIAENGAVIQLAEQWQEIDGFPRIISGISHGEISLVLNTLREKEHFKFTTFDDVDDATIAEWTGLSRSQAALTQLHEASVTLIWRDSDERMAQFTARLNELGLQFMQGARFWHVLDASAGKDQAANWIIATYQQLSGKRPTTLGLGDGPNDAPLLEVMDYAVIVKGLNREGVHLHDEDPARVWRTQREGPEGWREGLDHFFSAR` 10.5 h

* * *

- Assay Remarks: total protein half-life in vivo (active degradation + dilution); higher = more stable protein
- Condition Label: wild type E. coli NCM3722; growth: P-lim chemostat; doubling time 6 h
Recorded measurements of total protein half-life in vivo, one per entry
Please report the result as a number followed by the unit.

The following sequences have reported results that may help.
[
  {
    "Input Sequence": "MNNRVHQGHLARKRFGQNFLNDQFVIDSIVSAINPQKGQAMVEIGPGLAALTEPVGERLDQLTVIELDRDLAARLQTHPFLGPKLTIYQQDAMTFNFGELAEKMGQPLRVFGNLPYNISTPLMFHLFSYTDAIADMHFMLQKEVVNRLVAGPNSKAYGRLSVMAQYYCNVIPVLEVPPSAFTPPPKVDSAVVRLVPHATMPHPVKDVRVLSRITTEAFNQRRKTIRNSLGNLFSVEVLTGMGIDPAMRAENISVAQYCQMANYLAENAPLQES",
    "total protein half-life in vivo": "5.56 h"
  },
  {
    "Input Sequence": "MKLVGSYTSPFVRKLSILLLEKGITFEFINELPYNADNGVAQFNPLGKVPVLVTEEGECWFDSPIIAEYIELMNVAPAMLPRDPLESLRVRKIEALADGIMDAGLVSVREQARPAAQQSEDELLRQREKINRSLDVLEGYLVDGTLKTDTVNLATIAIACAVGYLNFRRVAPGWCVDRPHLVKLVENLFSRESFARTEPPKA [P0ACA1]",
    "total protein half-life in vivo": "5.51 h"
  }
]

Look up total protein half-life in vivo: `MPPRALLLVDLQNDFCAGGALAVPEGDSTVDVANRLIDWCQSRGEAVIASQDWHPANHGSFASQHGVEPYTPGQLDGLPQTFWPDHCVQNSEGAQLHPLLHQKAIAAVFHKGENPLVDSYSAFFDNGRRQKTSLDDWLRDHEIDELIVMGLATDYCVKFTVLDALQLGYKVNVITDGCRGVNIQPQDSAHAFMEMSAAGATLYTLADWEETQG` 4.76 h

Reference for the values: the supplement of paper PMC11246515
